Measured values drawn from ChEMBL document CHEMBL1961873 for this set.

- ASSAY_TARGET: Mitogen-activated protein kinase 13 (Homo sapiens);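 further: reported value is the mean percent inhibition of p38delta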
- CONDITION_CONTEXT: at 0.1 µM
MEASUREMENT_NAME: inhibition (%)

>>> observed_result("CCc1cccc(NC(=O)Nc2ccc(Oc3ccc4nc(NC(=O)OC)[nH]c4c3)cc2)c1")
0.54
>>> observed_result("CCn1c(-c2nonc2N)nc2c(C#CC(C)(C)O)nc(CN3CCCC3)cc21")
0.31
>>> observed_result("CCCN1CCC(Oc2cc(Nc3nc(Nc4cccc(F)c4C(N)=O)c4cc[nH]c4n3)c(OC)cc2Cl)CC1")
0.04
>>> observed_result("COc1cc(C)c(NC(=O)CN(C)C)cc1Nc1nc(Nc2cccc(F)c2C(N)=O)c2cc[nH]c2n1")
-0.43
>>> observed_result("Cc1ccc(NC(=O)c2ccnc(N3CCCC3)c2)cc1-c1ccc(C(=O)NCC2CC2)cc1")
3.45
>>> observed_result("CCN1CCC(CC(=O)Nc2n[nH]c3nc(-c4cccs4)c(Br)cc23)CC1")
-0.36

====

- ASSAY_TARGET: Rho-associated protein kinase 1 (Homo sapiens) (UniProt Q13464);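 further: reported values are mean percent inhibition of ROCK1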
- Sequence (Q13464 2-1354 limits assumed): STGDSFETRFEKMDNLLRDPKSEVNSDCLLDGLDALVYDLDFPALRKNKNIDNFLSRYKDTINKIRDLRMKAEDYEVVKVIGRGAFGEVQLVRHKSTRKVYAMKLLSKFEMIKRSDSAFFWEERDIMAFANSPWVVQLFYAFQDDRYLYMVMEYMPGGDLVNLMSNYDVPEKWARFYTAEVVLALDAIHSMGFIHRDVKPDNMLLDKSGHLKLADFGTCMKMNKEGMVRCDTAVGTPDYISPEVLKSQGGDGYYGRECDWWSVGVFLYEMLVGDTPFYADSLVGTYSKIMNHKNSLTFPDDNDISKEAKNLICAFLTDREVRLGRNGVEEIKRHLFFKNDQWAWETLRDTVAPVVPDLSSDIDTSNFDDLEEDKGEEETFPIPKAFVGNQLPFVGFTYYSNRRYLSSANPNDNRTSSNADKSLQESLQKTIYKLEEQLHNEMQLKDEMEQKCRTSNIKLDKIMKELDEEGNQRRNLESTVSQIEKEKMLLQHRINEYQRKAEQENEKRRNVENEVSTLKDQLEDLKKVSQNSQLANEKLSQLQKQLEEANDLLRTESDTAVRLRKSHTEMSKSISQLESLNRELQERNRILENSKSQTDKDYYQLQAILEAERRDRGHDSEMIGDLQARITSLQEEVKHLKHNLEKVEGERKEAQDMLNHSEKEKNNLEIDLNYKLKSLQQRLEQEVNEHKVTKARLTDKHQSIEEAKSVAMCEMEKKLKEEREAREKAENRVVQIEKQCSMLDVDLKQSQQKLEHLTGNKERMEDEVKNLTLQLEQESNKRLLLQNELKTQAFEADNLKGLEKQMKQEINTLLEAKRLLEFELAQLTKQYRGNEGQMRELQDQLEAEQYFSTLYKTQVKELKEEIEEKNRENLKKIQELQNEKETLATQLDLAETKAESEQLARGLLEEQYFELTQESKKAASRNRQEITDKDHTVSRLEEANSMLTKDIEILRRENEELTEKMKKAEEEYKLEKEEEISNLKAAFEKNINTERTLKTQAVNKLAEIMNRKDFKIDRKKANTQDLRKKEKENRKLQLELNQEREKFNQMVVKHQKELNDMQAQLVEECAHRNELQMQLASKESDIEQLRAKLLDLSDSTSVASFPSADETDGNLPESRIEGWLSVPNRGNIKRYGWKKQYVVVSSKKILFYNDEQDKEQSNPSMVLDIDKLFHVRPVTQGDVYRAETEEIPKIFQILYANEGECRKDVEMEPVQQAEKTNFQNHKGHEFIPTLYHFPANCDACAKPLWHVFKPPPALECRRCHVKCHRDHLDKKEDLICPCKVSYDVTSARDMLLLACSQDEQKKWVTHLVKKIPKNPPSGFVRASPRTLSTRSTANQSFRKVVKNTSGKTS
- CONDITION_CONTEXT: at 1 µM
Entries and their inhibition values follow.
MEASUREMENT_NAME: inhibition (%)

>>> observed_result("CCn1c(-c2nonc2N)nc2c(N3CCCC3)nccc21")
22.2
>>> observed_result("Cc1cc(O)cc(C)c1/C=C/c1cncc(-c2nn[nH]n2)c1")
1.86
>>> observed_result("O=C1NC(=O)C(N2CCc3ccccc32)=C1c1ccc(Cl)cc1")
2.06
>>> observed_result("CC1=C(C(=O)Nc2ccc3[nH]ncc3c2)C(c2ccc(Cl)c(Cl)c2)CC(=O)N1 (stereo unspecified)")
91.8
>>> observed_result("Cc1nnc(-c2ccc(C)c(-c3ccc(C(=O)Nc4cccc(C#N)c4)cc3)c2)o1")
0.62
>>> observed_result("Fc1cccc(COc2ccc(Nc3ncnc4sc(-c5cccs5)cc34)cc2Cl)c1")
2.28
>>> observed_result("CCn1c(-c2nonc2N)nc2c(C#CC(C)(C)O)nc(OC[C@@H](N)c3ccccc3)cc21")
37
>>> observed_result("Cc1ccc(C(=O)NC2CCCCC2)cc1-c1ccc(C(=O)NCC2CC2)cc1")
1.55
>>> observed_result("Nc1ncnc2occ(-c3ccc(NC(=O)Nc4cccc(C(F)(F)F)c4)cc3)c12")
19
>>> observed_result("COc1ccc(-c2coc3ncnc(N)c23)cc1")
3.53
>>> observed_result("COc1ccc(-c2nn3ncccc3c2-c2ccnc(Nc3ccc(Cl)c(C(F)(F)F)c3)n2)cc1")
0.16
>>> observed_result("CC(=O)Nc1cccc(C#Cc2cncnc2Nc2ccc(OCc3cccc(F)c3)c(Cl)c2)n1")
1.22
>>> observed_result("COc1cc2ncn(-c3cc(OCc4ccccc4Cl)c(C(N)=O)s3)c2cc1OC")
0.6
>>> observed_result("COc1ccc(COc2ccc(Cc3cnc(N)nc3N)cc2OC)cc1")
2.94
>>> observed_result("O=C1NC(=O)C(c2ccccc2Cl)=C1Nc1cccc(O)c1")
4.61
>>> observed_result("CCn1c(-c2nonc2N)nc2ccncc21")
1.28
>>> observed_result("O=C(Nc1n[nH]c2nc(-c3ccco3)c(Br)cc12)C1CC1")
0.97
>>> observed_result("NS(=O)(=O)c1ccc(N/N=C2\\C(=O)Nc3ccc(C(=O)NCCc4c[nH]cn4)cc32)cc1")
7.56
>>> observed_result("Nc1ncnc2occ(-c3ccc(NC(=O)Nc4cc(C(F)(F)F)cc(C(F)(F)F)c4)cc3)c12")
41.1
>>> observed_result("O=C1Nc2ccc(C(=O)c3ccco3)cc2C1=Cc1cc(Cl)c(O)c(Cl)c1")
7.03
>>> observed_result("CN(C)c1cc2c(Nc3ccc4nc(Cc5ccccc5)[nH]c4c3)ncnc2cn1")
2.36
